Attribution: ChEMBL document CHEMBL4725388

Consider the following molecules and their measured pIC50 readings.
testSystem: Protein disulfide-isomerase (Homo sapiens)
Sequence (P07237 whole entry): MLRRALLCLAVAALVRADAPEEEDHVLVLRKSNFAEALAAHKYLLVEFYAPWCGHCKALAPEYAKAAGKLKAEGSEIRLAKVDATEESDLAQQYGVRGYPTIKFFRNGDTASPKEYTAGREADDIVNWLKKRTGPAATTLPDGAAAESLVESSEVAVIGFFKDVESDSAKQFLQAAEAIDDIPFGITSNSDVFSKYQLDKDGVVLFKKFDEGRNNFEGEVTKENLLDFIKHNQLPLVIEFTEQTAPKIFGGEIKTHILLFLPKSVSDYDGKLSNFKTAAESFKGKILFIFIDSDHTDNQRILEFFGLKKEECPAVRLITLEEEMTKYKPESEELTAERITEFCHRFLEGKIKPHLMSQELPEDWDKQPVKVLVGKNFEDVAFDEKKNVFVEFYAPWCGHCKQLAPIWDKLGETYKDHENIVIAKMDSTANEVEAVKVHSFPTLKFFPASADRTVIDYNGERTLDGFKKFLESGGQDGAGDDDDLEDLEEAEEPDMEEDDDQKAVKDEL
test: Inhibition of recombinant human wild-type N-terminal His-tagged PDIA1 expressed in Escherichia coli strain BL21(DE3) using bovine insulin as substrate preincubated for 1 hr followed by substrate addition
As a rule, pIC50 stands for the negative log10 of the concentration, concentration in M.

// known answers, use as guide
>>> numericresult("Oc1cc(F)ccc1C(c1ccc2ccoc2c1O)N1CCCCC1 (stereo unspecified)")
5.97
>>> numericresult("Oc1ccc2[nH]ncc2c1C(c1ccc(-c2nccs2)cc1)N1CCCCC1 (stereo unspecified)")
6.47
>>> numericresult("Oc1ccc2ccncc2c1C(c1ccc(F)cc1)N1CCCCC1 (stereo unspecified)")
4.99
>>> numericresult("COc1cc(OC)c(C(c2cc3c(cc2O)OCO3)N2CCOCC2)c(OC)c1 (stereo unspecified)")
6.01
>>> numericresult("COc1ccccc1NC(c1ccccc1)c1ccc2cccnc2c1O (stereo unspecified)")
6.41

Query :: Given the entry Oc1cc2c(cc1C(Nc1ncccn1)c1ccc(F)cc1)OCO2 (stereo unspecified) , report its measured pIC50.
Result :: 4.90

Query :: Given the entry COc1cc(C(Nc2ncccn2)c2cc3c(cc2O)OCO3)cc(OC)c1O (stereo unspecified) , report its measured pIC50.
Result :: 5.66

Query :: Given the entry Oc1c(C(c2ccc(F)cc2)N2CCCCC2)ccc2c1OCO2 (stereo unspecified) , report its measured pIC50.
Result :: 5.55

---

System: U-87 MG
test: Cytotoxicity against human U-87 MG cells assessed as growth inhibition measured after 72 hrs by MTT assay
Format: functional, cell-based, U-87MG ATCC
pIC50: −log10 of the molar value.
measurementKind: pIC50

// known answers, use as guide
>>> result("COc1cccc(C(c2cc3c(cc2O)OCO3)N2CCOCC2)c1O (stereo unspecified)")
"< 5.00"
>>> result("CNC(=O)NC(c1ccc(F)cc1)c1cc2c(cc1O)OCO2 (stereo unspecified)")
"< 5.00"
>>> result("Cc1ccnc(NC(c2cccc(F)c2)c2ccc3cccnc3c2O)c1 (stereo unspecified)")
5.04
>>> result("COc1ccc(C(c2cc3c(cc2O)OCO3)N2CCOCC2)cc1 (stereo unspecified)")
"< 5.00"
>>> result("COc1ccc(C(c2cc3c(cc2O)OCO3)N2CCCC2)c(OC)c1 (stereo unspecified)")
"< 4.52"

Query :: Given the entry COc1cc(OC)c(C(c2cc3c(cc2O)OCO3)N2CCOCC2)c(OC)c1 (stereo unspecified) , report its measured pIC50.
Result :: 4.87

---

Test system: U-87 MG
test: Cytotoxicity against human U-87 MG cells assessed as growth inhibition measured after 72 hrs by MTT assay
Format: functional, cell-based, U-87MG ATCC
pIC50: −log10 of the molar value.
measurementKind: pIC50

// known answers, use as guide
>>> result("Oc1ccccc1C(c1cc2c(cc1O)OCO2)N1CCOCC1 (stereo not given)")
"< 4.52"
>>> result("Oc1c(C(Nc2ccccc2)c2ccccc2)ccc2cccnc12 (stereo not given)")
"< 5.00"
>>> result("Cc1ccc(C(Nc2ccccn2)c2ccc3cccnc3c2O)cc1 (stereo not given)")
"< 5.00"

Query :: Given the entry Oc1cc2c(cc1C(c1ccc(Cl)cc1)N1CCOCC1)OCO2 (stereo not given) , report its measured pIC50.
Result :: < 4.52

Query :: Given the entry COc1ccc(C(c2cc3c(cc2O)OCO3)N2CCCCC2)c(OC)c1 (stereo not given) , report its measured pIC50.
Result :: < 4.52

---

testSystem: Protein disulfide-isomerase (Homo sapiens)
test: Inhibition of recombinant human wild-type N-terminal His-tagged PDIA1 expressed in Escherichia coli strain BL21(DE3) using bovine insulin as substrate preincubated for 1 hr followed by substrate addition
measurementKind: log10(IC50) (log10 of the value in µM)
log10 IC50, µM

// known answers, use as guide
>>> numericresult("Cc1ccc(C)c(C(Nc2ccccn2)c2ccc3cccnc3c2O)c1 (stereo not drawn)")
-0.14
>>> numericresult("Cc1ccnc(NC(c2ccc(C(F)(F)F)cc2)c2ccc3cccnc3c2O)c1 (stereo not drawn)")
1.42
>>> numericresult("CCc1ccc(C(Nc2cc(C)ccn2)c2ccc3cccnc3c2O)cc1 (stereo not drawn)")
0.73

Query :: Given the entry Oc1c(C(c2ccc(F)cc2)N2CCCCC2)ccc2cccnc12 (stereo not drawn) , report its measured log10(IC50).
Result :: -0.16

Query :: Given the entry COc1ccc(C(c2cc3c(cc2O)OCO3)n2ccnc2)cc1 (stereo not drawn) , report its measured log10(IC50).
Result :: -0.21

Query :: Given the entry Oc1cc2c(cc1C(c1ccc(Cl)cc1)N1CCOCC1)OCO2 (stereo not drawn) , report its measured log10(IC50).
Result :: -1.04

---

Consider the following compounds and their measured pIC50 readings.
Test system: U-87 MG
test: Cytotoxicity against human U-87 MG cells assessed as growth inhibition measured after 72 hrs by MTT assay
Format: functional, cell-based, U-87MG ATCC
pIC50: −log10 of the molar value.

// known answers, use as guide
>>> result("Oc1cc2c(cc1C(c1ccc(F)cc1)N1CCCCC1)OCO2 (stereo not drawn)")
"< 4.52"
>>> result("Oc1cc2c(cc1C(Nc1ccccn1)c1ccc3c(c1)OCO3)OCO2 (stereo not drawn)")
"< 5.00"

Query :: Given the entry COc1cc(C(c2cc3c(cc2O)OCO3)N2CCOCC2)cc(OC)c1OC (stereo not drawn) , report its measured pIC50.
Result :: < 5.00

---

System: U-87 MG
test: Cytotoxicity against human U-87 MG cells assessed as growth inhibition measured after 72 hrs by MTT assay
Format: functional, cell-based, U-87MG ATCC
measurementKind: IC50

Query :: Given the entry O=C(O)c1ccccc1NC(c1ccccc1)c1ccc2cccnc2c1O (stereo not given) , report its measured IC50.
Result :: > 10 µM

Query :: Given the entry COc1cc(C(Nc2ncccn2)c2cc3c(cc2O)OCO3)cc(OC)c1O (stereo not given) , report its measured IC50.
Result :: > 10 µM

Query :: Given the entry COc1ccc(C(c2cc3c(cc2O)OCO3)N2CCCCC2)cc1 (stereo not given) , report its measured IC50.
Result :: 28.3 µM

Query :: Given the entry Cc1ccnc(NC(c2ccccc2C)c2ccc3cccnc3c2O)c1 (stereo not given) , report its measured IC50.
Result :: > 10 µM

Query :: Given the entry COc1cccc(C(c2cc3c(cc2O)OCO3)N2CCOCC2)c1OC (stereo not given) , report its measured IC50.
Result :: 32 µM

Query :: Given the entry Oc1c(C(Nc2ccccn2)c2ccccc2F)ccc2cccnc12 (stereo not given) , report its measured IC50.
Result :: > 10 µM

Query :: Given the entry Cc1ccnc(NC(c2ccccc2F)c2ccc3cccnc3c2O)c1 (stereo not given) , report its measured IC50.
Result :: 13.1 µM

Query :: Given the entry Cc1ccnc(NC(c2ccc(F)cc2)c2ccc3cccnc3c2O)c1 (stereo not given) , report its measured IC50.
Result :: > 10 µM

Query :: Given the entry Oc1cc2c(cc1C(c1ccc3c(c1)OCO3)N1CCOCC1)OCO2 (stereo not given) , report its measured IC50.
Result :: > 30 µM

Query :: Given the entry CNC(=O)NC(c1ccc2c(c1)OCO2)c1cc2c(cc1O)OCO2 (stereo not given) , report its measured IC50.
Result :: > 10 µM

---

testSystem: Protein disulfide-isomerase (Homo sapiens)
test: Inhibition of recombinant human wild-type N-terminal His-tagged PDIA1 expressed in Escherichia coli strain BL21(DE3) using bovine insulin as substrate preincubated for 1 hr followed by substrate addition
Doc: threshold 900 nM (exclusive). Items with IC50 beneath it return condition met; others return condition not met.

Here's what some known entries look like.
>>> qualitativelabel("Oc1cc2c(cc1C(Nc1ncccn1)c1ccc3c(c1)OCO3)OCO2 (centres undefined)")
"condition not met"
>>> qualitativelabel("COc1cccc(C(c2ccc3cccnc3c2O)N2CCOCC2)c1OC (centres undefined)")
"condition met"
>>> qualitativelabel("COc1ccc(C(c2cc3c(cc2O)OCO3)N2CCCCC2)cc1OC (centres undefined)")
"condition not met"
>>> qualitativelabel("COc1ccc(C(c2cc3c(cc2O)OCO3)N2CCCCC2)c(OC)c1 (centres undefined)")
"condition not met"
>>> qualitativelabel("Oc1c(C(c2ccncc2)N2CCCCC2)ccc2ccoc12 (centres undefined)")
"condition met"

Query :: Quick check: does Cc1ccc(C(Nc2ccccn2)c2ccc3cccnc3c2O)cc1 (centres undefined) have IC50 under 900 nM?
Result :: condition met

Query :: Quick check: does Oc1c(C(Nc2ccccn2)c2ccccc2F)ccc2cccnc12 (centres undefined) have IC50 under 900 nM?
Result :: condition met

Query :: Quick check: does Oc1ccc2nccnc2c1C(c1ccc(F)cc1)N1CCCCC1 (centres undefined) have IC50 under 900 nM?
Result :: condition not met

---

testSystem: UniProt P07237
test: Inhibition of recombinant human wild-type N-terminal His-tagged PDIA1 expressed in Escherichia coli strain BL21(DE3) using bovine insulin as substrate preincubated for 1 hr followed by substrate addition
Consider the following molecules and their measured IC50 readings.

// known answers, use as guide
>>> result("Oc1ccc2cnccc2c1C(c1ccc(F)cc1)N1CCCCC1 (centres undefined)")
"> 100 µM"
>>> result("Cc1ccnc(NC(c2ccccc2Cl)c2ccc3cccnc3c2O)c1 (centres undefined)")
"> 40 µM"
>>> result("Oc1cc2c(cc1C(c1ccc(F)cc1)N1CCCCC1)CCCC2 (centres undefined)")
"> 100 µM"

Query :: Given the entry CCOC(=O)c1ccccc1NC(c1ccccc1)c1ccc2cccnc2c1O (centres undefined) , report its measured IC50.
Result :: < 0.2 µM

Query :: Given the entry Cc1ccnc(NC(c2ccccc2)c2ccc3cccnc3c2O)c1 (centres undefined) , report its measured IC50.
Result :: < 0.2 µM

Query :: Given the entry Oc1cc2c(cc1C(c1ccc3c(c1)OCO3)N1CCOCC1)OCO2 (centres undefined) , report its measured IC50.
Result :: < 0.2 µM

Query :: Given the entry Cc1ccnc(NC(c2cc(C)ccc2C)c2ccc3cccnc3c2O)c1 (centres undefined) , report its measured IC50.
Result :: > 40 µM

Query :: Given the entry CN(C)c1ccc(C(c2cc3c(cc2O)OCO3)N2CCCC2)cc1 (centres undefined) , report its measured IC50.
Result :: < 0.2 µM

Query :: Given the entry Oc1ccc2scnc2c1C(c1ccc(F)cc1)N1CCCCC1 (centres undefined) , report its measured IC50.
Result :: > 100 µM
